# Target system: human V1a receptor (Homo sapiens, UniProt P37288)
# Sequence (P37288 whole entry): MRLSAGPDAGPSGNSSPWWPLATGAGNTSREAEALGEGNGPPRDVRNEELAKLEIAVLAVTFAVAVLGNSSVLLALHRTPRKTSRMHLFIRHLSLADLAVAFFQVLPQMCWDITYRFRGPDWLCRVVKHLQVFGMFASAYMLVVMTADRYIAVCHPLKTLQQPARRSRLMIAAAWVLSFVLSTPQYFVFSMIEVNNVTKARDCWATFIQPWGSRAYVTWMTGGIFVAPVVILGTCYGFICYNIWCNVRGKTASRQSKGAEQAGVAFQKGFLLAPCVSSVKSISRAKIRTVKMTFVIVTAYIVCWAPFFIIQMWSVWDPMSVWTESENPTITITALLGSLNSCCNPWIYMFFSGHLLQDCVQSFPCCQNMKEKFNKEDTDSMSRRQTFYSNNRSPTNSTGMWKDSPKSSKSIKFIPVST
# Procedure text: Cellular in vitro assay for vasopressin receptor activity, V1a receptor cell line (photoprotein luminescence)
# Experimental parameters: Table 1A; compounds of the invention; CHO cell line transfected with human V1a receptor, [Arg8]-vasopressin at EC50; read-out: IC50 hV1a
Measured metric: pIC50
Keep it numeric: pIC50 is minus log10 of the concentration in mol/L.

Ask: Determine its reported pIC50: `NC(=O)c1nc(Cn2nc(-c3ccc(Cl)cc3)n(CC(=O)C(F)(F)F)c2=O)nn1-c1ncccc1C(F)(F)F`
Result: 8.28

* * *

# Target system: human V2 receptor (Homo sapiens)
# Sequence (P30518 whole entry): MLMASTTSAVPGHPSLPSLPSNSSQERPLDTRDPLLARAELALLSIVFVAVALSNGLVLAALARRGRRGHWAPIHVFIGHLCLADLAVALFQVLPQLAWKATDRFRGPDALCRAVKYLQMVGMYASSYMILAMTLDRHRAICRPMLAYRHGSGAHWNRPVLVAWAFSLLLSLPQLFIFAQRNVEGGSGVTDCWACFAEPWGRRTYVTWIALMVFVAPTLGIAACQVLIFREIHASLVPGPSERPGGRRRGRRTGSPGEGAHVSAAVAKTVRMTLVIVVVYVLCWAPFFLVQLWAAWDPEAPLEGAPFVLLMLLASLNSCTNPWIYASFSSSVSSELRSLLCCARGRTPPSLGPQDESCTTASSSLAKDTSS
# Procedure text: Cellular in vitro assay for vasopressin receptor activity, V2 receptor cell line (CRE-luciferase)
# Experimental parameters: Table 1A; compounds of the invention; CHO cell line transfected with human V2 receptor, [Arg8]-vasopressin at EC50; read-out: IC50 hV2
Measured metric: pIC50
Keep it numeric: pIC50 is minus log10 of the concentration in mol/L.

Ask: Determine its reported pIC50: `NC(=O)c1nc(Cn2nc(-c3ccc(Cl)cc3)n(CC(=O)C(F)(F)F)c2=O)nn1-c1ncccc1C(F)(F)F`
Result: 6.46
